Test system: NCI/ADR-RES ovarian
Assay: NCI-60 one-dose screen, 48 h
Settings: 10 µM unless noted
Procedure: Growth inhibition of the NCI/ADR-RES human […] tumor cell line is measured as a screen for anti-cancer activity. Cells are grown in 96 well plates and exposed to the test compound for 48 hours. Compounds are tested at a single concentration, which is 10^-5 M for most compounds. The reported endpoint is percent growth (GI% or GIPRCNT), where numbers from 0 - 100% represent growth inhibition, and numbers from -100% - 0 represent cell death. For example, a value of 40 represents 60% growth inhibition. […]
About 83,000 compounds went through this panel and 20% of them were active in at least one assay; those are over-represented in the sample as a whole. Calls of active or inactive are those of the source. How the source made its calls: active means growth percent below 10; inactive means the rest.
Your reply should match one of these outcome classes. true (active), false (inactive)

Inquiry: Tell me the assay call for CN1CCN(c2ccc(Nc3ncc(C(N)=O)c(NCCCNC(=O)C4CCC4)n3)cc2)CC1 please.
Reply text: false

Inquiry: Query: recorded result category for COc1ccc(/C(C)=C(\c2ccc(OCCN3CCOCC3)cc2)c2ccc(OC(=O)C3CCCCC3)cc2)cc1 in this test
Reply text: false

Inquiry: Each molecule tested received a call. Report the one for CC(=O)c1c(C)nc(SCC(=O)Nc2ccc(Cl)cc2)n1-c1ccc(Cl)cc1 .
Reply text: false

Inquiry: Short answer needed: outcome of this test for COC(=O)c1[nH]nc(OC)c1C1(C(C#N)c2nc3ccccc3s2)CCCc2ccccc21 (stereo not given) ?
Reply text: false
